Data credit: ChEMBL document CHEMBL1134690

# Test system: COLO 205
# protocol.text: Cytotoxicity against colon […] cell lines
# Format: functional
# run.conditions: Homo sapiens
Field: GI50. Provide a value for each of the compounds that follow.
Answers are plain numbers, in nM.

INSERT INTO results (molecule_smiles, study_target, reported_measurement) VALUES
  ('COc1ccc(/N=C2\C(=O)C3=C(OC(C)(C)CC3)c3ccccc32)cc1', 'COLO 205', 1020),
  ('CC1(C)CCC2=C(O1)c1ccccc1/C(=N/c1ccc([N+](=O)[O-])cc1)C2=O', 'COLO 205', 16800),
  ('CC1(C)CCC2=C(O1)c1ccccc1C(=O)C2=O', 'COLO 205', 1780);

Return reported GI50 values for all items listed beneath this line.
1. Cc1ccc(/N=C2\C(=O)C3=C(OC(C)(C)CC3)c3ccccc32)cc1
2. CC1(C)CCC2=C(O1)c1ccccc1/C(=N/c1ccccc1)C2=O

Ans:
[1800, 1550]

---

# Tested on: NCI-H23
# protocol.text: Cytotoxicity against lung NCI-H23 cell lines
# Assay type: functional
# run.conditions: Homo sapiens
property.label: GI50 (µM)
Numbers only, in µM.

Known results for molecules:
INSERT INTO results (molecule, study_target, reported_measurement) VALUES
  ('CC1(C)CCC2=C(O1)c1ccccc1/C(=N/c1ccc([N+](=O)[O-])cc1)C2=O', 'NCI-H23', 18.3),
  ('Cc1ccc(/N=C2\C(=O)C3=C(OC(C)(C)CC3)c3ccccc32)cc1', 'NCI-H23', 0.92),
  ('CC1(C)CCC2=C(O1)c1ccccc1C(=O)C2=O [LAPACHONE]', 'NCI-H23', 0.76),
  ('CC1(C)CCC2=C(O1)c1ccccc1/C(=N/c1ccccc1)C2=O', 'NCI-H23', 1.23);

Read the next record carefully.
Q: Using the record for `COc1ccc(/N=C2\C(=O)C3=C(OC(C)(C)CC3)c3ccccc32)cc1` , report its GI50.
Ans: 1.17

---

Record form. Attribute: log10 GI50. Fill in for each entry.
# System: CCRF-CEM
# protocol.text: Cytotoxicity against leukemia CCRF-CEM cell lines
# Type: functional
# run.conditions: Homo sapiens
# values: log10(GI50), units µM

INSERT INTO results (molecule_smiles, reported_measurement) VALUES
  ('CC1(C)CCC2=C(O1)c1ccccc1C(=O)C2=O', 0.15),
  ('Cc1ccc(/N=C2\C(=O)C3=C(OC(C)(C)CC3)c3ccccc32)cc1', 0.41),
  ('CC1(C)CCC2=C(O1)c1ccccc1/C(=N/c1ccccc1)C2=O', 0.19);

Batch of 2 compounds: report log10 GI50 for each.
1. COc1ccc(/N=C2\C(=O)C3=C(OC(C)(C)CC3)c3ccccc32)cc1
2. CC1(C)CCC2=C(O1)c1ccccc1/C(=N/c1ccc([N+](=O)[O-])cc1)C2=O

Ans:
[0.19, 1.29]

---

# Test system: DU-145
# protocol.text: Cytotoxicity against prostate DU-145 cell lines
# Format: functional
# run.conditions: Homo sapiens
property.label: GI50 (µM)
One number for each entry, in µM.

Consider the following illustrative entries.
INSERT INTO assay_data (molecule_smiles, study_target, property_label, reported_measurement) VALUES
  ('CC1(C)CCC2=C(O1)c1ccccc1C(=O)C2=O', 'DU-145', 'GI50', 1.74),
  ('COc1ccc(/N=C2\C(=O)C3=C(OC(C)(C)CC3)c3ccccc32)cc1', 'DU-145', 'GI50', 0.87),
  ('Cc1ccc(/N=C2\C(=O)C3=C(OC(C)(C)CC3)c3ccccc32)cc1', 'DU-145', 'GI50', 1.76),
  ('CC1(C)CCC2=C(O1)c1ccccc1/C(=N/c1ccc([N+](=O)[O-])cc1)C2=O', 'DU-145', 'GI50', 16.8);

# next compound below
Q: So what does the record say about GI50 for `CC1(C)CCC2=C(O1)c1ccccc1/C(=N/c1ccccc1)C2=O` ?
Ans: 1.56
